Molecular target: HCV polymerase (Hepatitis C virus genotype 1b, UniProt P26663)
Construct: 2.5 pmoles (0.15 μg) HCV polymerase protein in a final volume of 75 μL
Sequence (P26663 2420-3010): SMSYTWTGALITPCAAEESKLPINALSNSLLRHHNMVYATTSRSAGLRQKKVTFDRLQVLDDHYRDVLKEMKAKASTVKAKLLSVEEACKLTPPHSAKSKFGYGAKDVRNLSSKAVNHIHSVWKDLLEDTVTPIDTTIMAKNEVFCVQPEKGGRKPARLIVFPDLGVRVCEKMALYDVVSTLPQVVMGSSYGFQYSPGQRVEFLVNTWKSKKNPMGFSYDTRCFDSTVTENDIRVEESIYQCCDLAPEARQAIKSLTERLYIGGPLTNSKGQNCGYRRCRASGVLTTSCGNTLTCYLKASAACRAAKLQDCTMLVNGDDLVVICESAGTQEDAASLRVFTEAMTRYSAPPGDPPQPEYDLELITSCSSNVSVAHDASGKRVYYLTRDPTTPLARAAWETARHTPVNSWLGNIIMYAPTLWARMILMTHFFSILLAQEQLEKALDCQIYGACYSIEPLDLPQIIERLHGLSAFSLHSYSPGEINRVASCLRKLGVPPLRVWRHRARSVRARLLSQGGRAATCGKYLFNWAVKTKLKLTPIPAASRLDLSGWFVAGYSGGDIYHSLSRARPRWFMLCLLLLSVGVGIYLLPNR
Test: HCV Polymerase Inhibition Assay
Type: biochemical
Settings: recombinant HCV polymerase, primer/template-directed transcription (biotin-dG12/poly(rC)300), 30 minutes at 30° C.
pIC50: −log10 of the molar value.

{"columns": ["COMPOUND", "pIC50"],
 "data": [
  ["O=C1CC(=O)OC(CCC#Cc2ccc3c(c2)OCO3)(C2CCCC2)C1 (centres unmarked) [Example 10]", 4.97],
  ["COc1ccc(C#CC2(C3CCCC3)CC(=O)CC(=O)O2)cc1 (centres unmarked) [Example 1]", 4.92],
  ["COc1cccc(C#CCCC2(C3CCCC3)CC(=O)CC(=O)O2)c1 (centres unmarked) [Example 7]", 4.92],
  ["O=C1CC(=O)OC(CCC#Cc2ccc3c(c2)OCCO3)(C2CCCC2)C1 (centres unmarked) [Example 9]", 4.93],
  ["COC(=O)Cc1ccc(C#CCCC2(C3CCCC3)CC(=O)CC(=O)O2)cc1 (centres unmarked) [Example 12]", 4.99]
]}

* * *

Molecular target: HCV polymerase (Hepatitis C virus genotype 1b, UniProt P26663)
Construct: 2.5 pmoles (0.15 μg) HCV polymerase protein in a final volume of 75 μL
Test: HCV Polymerase Inhibition Assay
Details: recombinant HCV polymerase, primer/template-directed transcription (biotin-dG12/poly(rC)300), 30 minutes at 30° C.
pIC50: −log10 of the molar value.
Outcome: fulfilled for pIC50 of at least 5; not fulfilled for anything lower.

{"columns": ["COMPOUND", "TARGET", "CLASS_ASSIGNMENT"],
 "data": [
  ["C#CCCC1(C2CCCC2)CC(=O)CC(=O)O1 (stereo not drawn)", "HCV polymerase (Hepatitis C virus genotype 1b, UniProt P26663)", "not fulfilled"],
  ["O=C1CC(=O)OC(C#Cc2nccs2)(C2CCCC2)C1 (stereo not drawn)", "HCV polymerase (Hepatitis C virus genotype 1b, UniProt P26663)", "fulfilled"],
  ["O=C1CC(=O)OC(CCC#Cc2ccc3ocnc3c2)(C2CCCC2)C1 (stereo not drawn)", "HCV polymerase (Hepatitis C virus genotype 1b, UniProt P26663)", "fulfilled"],
  ["O=C1CC(=O)OC(CCC#Cc2cccc(O)c2)(C2CCCC2)C1 (stereo not drawn)", "HCV polymerase (Hepatitis C virus genotype 1b, UniProt P26663)", "fulfilled"],
  ["O=C1CC(=O)OC(CCC#Cc2ccc3scnc3c2)(C2CCCC2)C1 (stereo not drawn)", "HCV polymerase (Hepatitis C virus genotype 1b, UniProt P26663)", "fulfilled"],
  ["C#CCCC1(C2CCCC2)CC(=O)C(Sc2ccccc2)C(=O)O1 (stereo not drawn)", "HCV polymerase (Hepatitis C virus genotype 1b, UniProt P26663)", "not fulfilled"],
  ["CC(=O)Nc1ccc(C#CCCC2(C3CCCC3)CC(=O)CC(=O)O2)cn1 (stereo not drawn)", "HCV polymerase (Hepatitis C virus genotype 1b, UniProt P26663)", "not fulfilled"]
]}
